Where these numbers come from: patent US20150147342A1

# reported Percent Blocking of Ang-2FD Binding to Tie-2; entries follow
# Subject Of Test: T1, Dimeric fibrinogen-like domain of monkey (Macca fascicularis) Ang-2 conjugated to human IgG1 (monkey (Macca fascicularis))
# T1 construct: also called Dimeric Monkey Ang-2FD; Monkey Ang-2FD-hFc
# Protocol Summary: blocking ELISA, 16.67 nM antibody, coated hTie-2-mFc

Examples with answers:
{"Binder": "H1M732N (antibody, V domains shown) VH: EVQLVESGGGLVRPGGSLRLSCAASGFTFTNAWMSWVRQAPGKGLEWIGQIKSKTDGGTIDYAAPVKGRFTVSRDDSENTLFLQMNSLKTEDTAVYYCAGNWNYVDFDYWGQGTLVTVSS VL: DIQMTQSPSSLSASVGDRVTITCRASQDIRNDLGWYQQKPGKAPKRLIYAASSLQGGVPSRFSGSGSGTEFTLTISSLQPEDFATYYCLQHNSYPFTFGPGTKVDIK", "Value Measured": "95.8%"}
{"Binder": "H2M730N (antibody, V domains shown) VH: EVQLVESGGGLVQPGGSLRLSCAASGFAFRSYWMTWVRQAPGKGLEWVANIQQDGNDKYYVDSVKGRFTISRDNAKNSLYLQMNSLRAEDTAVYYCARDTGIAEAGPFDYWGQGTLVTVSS VL: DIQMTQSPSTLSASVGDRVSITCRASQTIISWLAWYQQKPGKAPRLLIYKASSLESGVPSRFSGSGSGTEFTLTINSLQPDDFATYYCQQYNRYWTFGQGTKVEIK", "Value Measured": "97.3%"}

Report measured Percent Blocking of Ang-2FD Binding to Tie-2; entry is H2M743N (antibody, V domains shown) VH: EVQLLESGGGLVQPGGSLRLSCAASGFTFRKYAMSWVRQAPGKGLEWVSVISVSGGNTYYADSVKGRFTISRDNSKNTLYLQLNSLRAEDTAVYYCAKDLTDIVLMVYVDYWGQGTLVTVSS VL: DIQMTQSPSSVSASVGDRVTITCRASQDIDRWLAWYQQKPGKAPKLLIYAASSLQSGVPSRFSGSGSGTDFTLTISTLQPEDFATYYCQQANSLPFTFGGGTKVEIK
95.1%

Report measured Percent Blocking of Ang-2FD Binding to Tie-2; entry is H2M744N (antibody, V domains shown) VH: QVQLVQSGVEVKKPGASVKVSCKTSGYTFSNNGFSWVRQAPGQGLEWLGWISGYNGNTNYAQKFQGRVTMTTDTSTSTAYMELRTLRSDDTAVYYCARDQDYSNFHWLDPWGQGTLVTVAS VL: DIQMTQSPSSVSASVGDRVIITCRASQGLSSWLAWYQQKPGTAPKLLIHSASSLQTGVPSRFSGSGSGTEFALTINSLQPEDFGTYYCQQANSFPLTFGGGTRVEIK
95.5%
